# assay_remarks: binders of probe aFST on microarray, primary screen, stem cell growth factor project, biochemical, small-molecule microarray, fluorescence 635/667 (AID 1086);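 also: score merges 667 nm fluorescence with signal-to-noise of each printed compound spot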
# measurement_context: higher = more signal
parameter_measured: composite z-score

>>> observed_value("C=CCOC(=O)[C@H]1[C@@H]2C(=O)O[C@@H](c3ccccc3)[C@@H](c3ccccc3)N2[C@@H](c2ccc(OCCOC(=O)[C@@H]3C[C@@H]4C(=O)N[C@@H](CCCCNC(C)=O)C(=O)N4[C@@H]3c3ccc(O)cc3)cc2)[C@]12C(=O)Nc1ccccc12")
-0.0579
>>> observed_value("CCOC(=O)[C@H]1C/C=C/C[C@H](C(=O)OCC)C(=O)O[C@H]2[C@@H](OC)O[C@H](CO)[C@@H](OC(=O)c3c(OC)cccc3OC)[C@@H]2OC1=O")
0.951
>>> observed_value("COC(=O)[C@@]1(Cc2ccccc2)[C@H]2c3cc(C(=O)N4CCCC4)n(Cc4ccc(S(C)(=O)=O)cc4)c3C[C@H]2CN1C(=O)c1ccccc1")
1.23
>>> observed_value("C=CCOC(=O)[C@@H]1[C@H]2C(=O)O[C@H](c3ccccc3)[C@H](c3ccccc3)N2[C@H](c2ccc(OCCOC(=O)[C@@H]3C[C@@H]4C(=O)NCC(=O)N4[C@@H]3c3ccc(O)cc3)cc2)[C@@]12C(=O)Nc1ccc(I)cc12")
0.0347
>>> observed_value("CN(C)CCCCCCNC(=O)[C@@H]1C[C@@H]2C(=O)N[C@@H](Cc3ccccc3)C(=O)N2[C@@H]1c1ccc(O)cc1")
0.901
>>> observed_value("COc1cc2c(cc1OC)CN(C(=O)[C@@H]1[C@H]3C(=O)O[C@H](c4ccccc4)[C@H](c4ccccc4)N3[C@H](c3ccccc3OCCO)[C@@]13C(=O)Nc1ccc(C#CCCO)cc13)CC2")
1.25
>>> observed_value("O=C(c1ccccc1)N1C(=O)[C@]2(COC(c3ccc(OCCCO)cc3)=N2)Cc2ccccc21")
0.647
>>> observed_value("C=CCC(OC(C)=O)[C@@H]1[C@@H](N(Cc2cccc3ccccc23)C(=O)c2ccc(-c3ccccc3)cc2)c2cc(OCCCO)ccc2N1C(=O)c1ccc2ccccc2c1 (stereo partly specified)")
0.131
>>> observed_value("CC(C)C(CO)N1C(=O)[C@@H]2C3C(=O)OCCC/C=C\\[C@H]3OC23C=CCN(CCN2CCOCC2)C(=O)[C@@H]13 (stereo partly specified)")
-0.139
>>> observed_value("[N-]=[N+]=NCc1ccccc1C[C@]1(C(N)=O)COC(c2ccc(OCCCO)cc2)=N1")
0.847
>>> observed_value("C=C(COC)/C(=C/C[C@@H](OC(=O)c1ccncc1)c1ccc(CO)o1)c1cc(C(=O)OC)ccc1OC")
0.458
>>> observed_value("CCc1cccc(NC(=O)O[C@H]2[C@H](OC(=O)Nc3ccccc3-c3ccccc3)[C@@H](OC(=O)Nc3ccccc3-c3ccccc3)[C@@H](OC)O[C@@H]2CO)c1")
1.32
>>> observed_value("O=C(NCCN1CCOCC1)[C@@H]1c2ccccc2C(=O)N(C2CCCCC2)[C@H]1c1ccc(CO)cc1")
0.106
>>> observed_value("CC(=O)NCCCC[C@@H]1NC(=O)[C@H]2C[C@@H](C(=O)NCCCCCCNC(=O)CS)[C@@H](c3ccc(O)cc3)N2C1=O")
-0.555
>>> observed_value("O=C1OCCC/C=C\\[C@H]2OC34C=CCN(Cc5ccccc5)C(=O)[C@H]3N(CCCO)C(=O)[C@@H]4C12 (stereo partly specified)")
-0.572
>>> observed_value("NC(=O)N1C(=O)C2C(C1=O)C1C=C(c3ccc(CO)cc3)C2C(c2cccs2)N1Cc1cccc(OC(F)(F)F)c1 (stereo unspecified)")
0.322
>>> observed_value("C=CCOC(=O)[C@H]1[C@@H]2C(=O)O[C@@H](c3ccccc3)[C@@H](c3ccccc3)N2[C@@H](c2ccc(OCCOC(=O)[C@H]3C[C@H]4C(=O)N[C@@H](CCCCN(C)C)C(=O)N4[C@H]3c3ccc(O)cc3)cc2)[C@]12C(=O)Nc1ccc(I)cc12")
0.0907
>>> observed_value("C=C[C@H](CO[Si](CC)(CC)CC)N(Cc1ccc(OC(C)=O)c(OC)c1)S(=O)(=O)c1ccc(Br)cc1")
1.22
>>> observed_value("COC(=O)[C@@]1(Cc2ccc(OC)cc2)[C@H]2c3cc(C(=O)N4CCCC4)n(Cc4ccc(C)c(F)c4F)c3C[C@H]2CN1C(=O)c1ccccc1")
1.78
>>> observed_value("C=C(C)[C@@H]1CC=C(C(O)C2C=CC3C(=O)N(C)C(=O)C3N2Nc2ccccc2)CC1 (stereo partly specified)")
0.577
>>> observed_value("COc1cc2c(cc1OC)CN(C(=O)[C@H]1[C@@H]3C(=O)O[C@@H](c4ccccc4)[C@@H](c4ccccc4)N3[C@@H](c3ccc(O)cc3)[C@]13C(=O)Nc1ccc(C#CCCO)cc13)CC2")
-0.0227
>>> observed_value("C=CCOC(=O)[C@H]1[C@@H]2C(=O)O[C@@H](c3ccccc3)[C@@H](c3ccccc3)N2[C@@H](c2ccc(OCCOC(=O)[C@@H]3C[C@@H]4C(=O)N[C@@H](CC(C)C)C(=O)N4[C@@H]3c3ccc(O)cc3)cc2)[C@]12C(=O)Nc1ccccc12")
0.0922
>>> observed_value("C=C(CCCC)/C(=C/C[C@H](OC(C)=O)c1ccccc1OCCO)c1cc(C(=O)OC)ccc1OC")
-0.201
>>> observed_value("O=C1NC(=O)C2C1C=CC(C(O)c1cc(C(F)(F)F)cc(C(F)(F)F)c1)N2Nc1ccccn1 (stereo unspecified)")
0.138
>>> observed_value("CCS[C@H]1[C@@H](C(=O)O)[C@H](c2ccc(C)cc2)N(S(=O)(=O)c2ccc(C)cc2)[C@@H]1CC")
1.56
>>> observed_value("CN1C(=O)C2C=CC(C(O)c3ccco3)N(Nc3ccccc3)C2C1=O (stereo unspecified)")
-0.104
